# Test system: Fibroblast
# Test summary: Multiplex assay against human fibroblast
# Assay type: toxicity, cell-based
# Experimental setup: 12 h, 10 µM, compound concentration 10 uM, replicate 1
Observation type: Population Fragmented Nuclei (%)
Number in %, nothing else.

Task: Would you mind telling me what Population Fragmented Nuclei (%) value was observed for O=C(O)c1cc2ccccc2c(Cc2c(O)c(C(=O)O)cc3ccccc23)c1O [PAMOIC ACID] ?
Output: 7

Task: Field entry: CC[C@H]1OC(=O)[C@H](C)[C@@H](O[C@H]2C[C@@](C)(OC)[C@@H](O)[C@H](C)O2)[C@H](C)[C@@H](O[C@@H]2O[C@H](C)C[C@H](N(C)C)[C@H]2O)[C@@]2(C)CC(C)=C(O2)[C@H](C)[C@@H](O)[C@]1(C)O
Output: 24

Task: Field entry: CN(C)c1ccnc2sc3c(=O)n(N4CCCCCC4)cnc3c12
Output: 14

Task: Field entry: CSc1ccccc1N1CCN(CCCCCC(=O)NC2CCCc3ccccc32)CC1.Cl (centres undefined)
Output: 25

Task: Field entry: CCCn1c(=O)c2[nH]c(C3CCCC3)nc2n(CCC)c1=O
Output: 18

Task: Field entry: COc1cc(C(=O)N(CCCc2ccccc2)Cc2ccc(CC(=O)O)cc2)cc(OC)c1C
Output: 16

Task: Field entry: Cc1ccccc1C(=O)Nc1ccc(C(=O)N2CCCC(N(C)C)c3ccccc32)cc1.Cl (centres undefined)
Output: 26

Task: Field entry: CC(C)(C)c1ccc(S(=O)(=O)Nc2ccc(Cl)cc2C(=O)c2cc[n+]([O-])cc2)cc1 [VERCIRNON]
Output: 14

Task: Field entry: N#Cc1c(N)nc(SCc2csc(-c3ccc(Cl)cc3)n2)c(C#N)c1-c1ccc(OCCO)cc1 [CAPADENOSON]
Output: 23

Task: Field entry: Cc1ccc(F)cc1C(=O)Nc1ccc(C(=O)N2Cc3cccn3Cc3ccccc32)c(Cl)c1 [LIXIVAPTAN]
Output: 18

Task: Field entry: CCNC1(C(N)=O)CCN(c2ncnc3c2nc(-c2ccccc2Cl)n3-c2ccc(Cl)cc2)CC1 [OTENABANT]
Output: 22

Task: Field entry: CN(C)CCCc1cc(C(=O)Nc2ccc(-c3ccncc3)cc2)ccc1O.Cl.Cl
Output: 33

Task: Field entry: Cl.Clc1ccc2nsnc2c1NC1=NCCN1 [TIZANIDINE HYDROCHLORIDE]
Output: 18

Task: Field entry: C[C@H](NC(=O)c1c(C(F)F)nn(C)c1Oc1cccc(C(F)(F)F)c1)c1ccc(C(=O)O)cc1 [PALUPIPRANT]
Output: 13

Task: Field entry: CC(=O)NCCc1c(Cc2ccccc2)[nH]c2ccccc12 [LUZINDOLE]
Output: 15

Task: Field entry: COc1c(C)cc(NC(=O)c2nn(Cc3ccc(F)cc3)c3c2CN(C(=O)c2ccc[nH]2)C[C@]3(C)C(N)=O)cc1C
Output: 12

Task: Field entry: CN1CCN2c3ncccc3Cc3ccccc3C2C1 (centres undefined) [MIRTAZAPINE]
Output: 19

Task: Field entry: CCCC(CCC)C(=O)O [VALPROIC ACID]
Output: 29

Task: Field entry: CCCN1CCC[C@@H]2Cc3n[nH]cc3C[C@H]21.Cl [QUINPIROLE HYDROCHLORIDE]
Output: 16

Task: Field entry: CCOc1c2c(c(OCC)c3ncccc13)CN(c1ccc(CS(=O)(=O)NC(=O)Cc3ccccc3OC)cc1C)C2=O
Output: 15

Task: Field entry: Cc1ccc(/C(=C\CN2CCCC2)c2ccccn2)cc1 [TRIPROLIDINE]
Output: 14

Task: Field entry: COc1cc(NC(=O)CCN2CCC(OC(=O)Nc3ccccc3-c3ccccc3)CC2)c(Cl)cc1CNC[C@H](O)c1ccc(O)c2[nH]c(=O)ccc12 [BATEFENTEROL]
Output: 24

Task: Field entry: C[C@H]1[C@H]2CC[C@H]3[C@@H]4CC=C5C[C@@H](N(C)C)CC[C@]5(C)[C@H]4CC[C@]23CN1C [CONESSINE]
Output: 26

Task: Field entry: c1cc(OCCCN2CCCCC2)ccc1CN1CCCCC1 [JNJ-5207852]
Output: 22

Task: Field entry: O=C(NCCO)c1cccc(-c2cc(Nc3ccc(OC(F)(F)F)cc3)ncn2)c1
Output: 17

Task: Field entry: CC1(COc2ccc3c(c2)ncn3-c2ccc3cccc(N4CCC(N)CC4)c3n2)COC1 [CRENOLANIB]
Output: 21

Task: Field entry: CNC[C@H](O)c1ccc(O)c(O)c1 [EPINEPHRINE]
Output: 18

Task: Field entry: COc1ccc2c(c1)C(C(=O)N(Cc1ccc(N(C)C)cc1)c1ccc(C(C)C)cc1)CCC2.Cl (centres undefined)
Output: 17

Task: Field entry: Cc1ccc(C(C)(O)c2nc3ccccc3s2)c(C)c1 (centres undefined)
Output: 11
